Recorded values, source PubChem BioAssay AID1159580.

methodDescription: chemical genetic growth profiling, strain panel (AID 1159580);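 also: tested at 20 µM; growth read once vehicle control cultures reached saturation at 30 °C; 1 = growth at the plate median or of vehicle wells; lower values mean less growth of the strain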
measurementSetup: S. cerevisiae deletion strains, growth OD, locus YPR141C, strain kar3, hits give low values
The campaign covered roughly 5,500 compounds. About 2,000 (36%) were called active. Not shown: some 18% with an inconclusive outcome. Some of the results follow.
measuredMetric: normalized growth

>>> reportedvalue("O=c1ccc2cc(O)c(O)cc2o1")
0.993
>>> reportedvalue("COc1c2c(c(CC=C(C)C)c3oc(=O)c(-c4ccc(O)cc4)c(O)c13)OC(C)(C)C=C2")
0.977
>>> reportedvalue("C[N+](C)(C)CCOP(=O)([O-])OP(=O)(O)OC[C@H]1OC(n2ccc(N)nc2=O)[C@H](O)[C@@H]1O (stereo partly drawn)")
0.993
>>> reportedvalue("COc1ccc(-c2c(O)c3cc4c(c(CC=C(C)C)c3oc2=O)OC(C)(C)CC4)cc1")
1.02
>>> reportedvalue("CCC(C(N)=O)c1ccccc1 (stereo not drawn)")
1.01
>>> reportedvalue("OCc1ccccc1O[C@@H]1O[C@H](CO)[C@@H](O)[C@H](O)[C@H]1O")
0.973
>>> reportedvalue("COc1ccc2cc1Oc1ccc(cc1)C[C@H]1c3cc(c(OC)cc3CCN1C)Oc1c(OC)c(OC)cc3c1[C@H](C2)N(C)CC3")
1.02
>>> reportedvalue("NC(N)=Nc1nc(CSCCC(N)=NS(N)(=O)=O)cs1")
1
